Please go through the items and note down their IC50.
# target desc: recombinant human p38 αMAP kinase (Homo sapiens, UniProt Q16539)
# Sequence (Q16539 whole entry): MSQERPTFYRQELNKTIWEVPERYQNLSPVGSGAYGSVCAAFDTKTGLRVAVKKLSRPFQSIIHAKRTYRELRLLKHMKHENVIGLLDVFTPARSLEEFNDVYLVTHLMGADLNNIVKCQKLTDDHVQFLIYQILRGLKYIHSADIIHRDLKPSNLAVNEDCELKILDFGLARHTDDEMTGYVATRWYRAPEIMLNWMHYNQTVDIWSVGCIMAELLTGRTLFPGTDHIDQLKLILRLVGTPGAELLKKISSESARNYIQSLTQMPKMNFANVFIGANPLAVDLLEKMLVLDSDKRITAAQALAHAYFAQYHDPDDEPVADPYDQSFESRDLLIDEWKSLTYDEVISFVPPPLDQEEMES
# protocol summary: Study on p38 αMAP kinase inhibitory activity (ATF-2 phosphorylation, Alpha Screen)
# assay setup: phosphorylation of biotinylated ATF2 by recombinant human p38 αMAP kinase, 30° C. for 30 minutes
Answers are plain numbers, in nM.

Below is a list of compounds. For each, state its recorded IC50.
1. Cc1ccc(-n2nc(C(C)(C)C)cc2NC(=O)Nc2cc(CN3CCN(C(=O)c4ccc(CN5CCN(C)CC5)cc4)CC3)ccc2Cl)cc1
2. Cc1ccc(-n2nc(C(C)(C)C)cc2NC(=O)Nc2ccc(OC3CCN(C(=O)c4ccc(CN5CCN(C)CC5)cc4)CC3)cc2C)cc1

[2.5, 3.8]

Below is a list of compounds. For each, state its recorded IC50.
1. Cc1ccc(-n2nc(C(C)(C)C)cc2NC(=O)Nc2ccc(CN3CCC(=O)N(c4ccccc4C)C3)cc2)cc1
2. Cc1ccc(-n2nc(C(C)(C)C)cc2NC(=O)Nc2ccc(CN3CCN(C(=O)c4ccc(CN5CCN(C)CC5)cc4)CC3)cc2C)cc1

1: 2.9; 2: 5.6
